# experiment.notes: Cytotoxicity in human corneal fibroblasts assessed as cell viability at MIC incubated for 4 hrs by luminescent cell viability assay relative to control
# Set-up: species or system Corneal fibroblast
# reported.conditions: read-out: Activity
readout.name: viability at 4 h, 1 times MIC

- chemical.string: "COc1c(OCCCCN)cc2oc3cc(OCCCCN)c(CC=C(C)C)c(O)c3c(=O)c2c1CC=C(C)C"
  observed.measurement: "91.7%"

* * *

# experiment.notes: Membrane permeabilization activity assessed as release of calcein from DOPC liposomes at lipid:compound ratio of 8 incubated for 30 mins by fluorescence assay
# Assay type: ADME
# reported.conditions: 0.5 h
readout.name: Activity

- chemical.string: "CCN(CC)CCCCOc1ccc2c(=O)c3c(O)cc(OCCCCN(CC)CC)cc3oc2c1"
  readout.name: "Activity"
  observed.measurement: "Not Active"
- chemical.string: "COc1c(O)cc2oc3cc(O)c(CCC(C)C)c(O)c3c(=O)c2c1CCC(C)C"
  readout.name: "Activity"
  observed.measurement: "Not Active"
- chemical.string: "O=c1c2ccc(O)cc2oc2cc(O)cc(O)c12"
  readout.name: "Activity"
  observed.measurement: "Not Active"
- chemical.string: "COc1c(O)cc2oc3cc(O)c(CC=C(C)C)c(O)c3c(=O)c2c1CC=C(C)C"
  readout.name: "Activity"
  observed.measurement: "14.1%"
